TARGET_UNDER_TEST: Lipase from human porcine pancreas (Sus scrofa)
Construct: purchased Sigma‐Aldrich, Inc (Shanghai, China)
Sequence (P00591 1-450): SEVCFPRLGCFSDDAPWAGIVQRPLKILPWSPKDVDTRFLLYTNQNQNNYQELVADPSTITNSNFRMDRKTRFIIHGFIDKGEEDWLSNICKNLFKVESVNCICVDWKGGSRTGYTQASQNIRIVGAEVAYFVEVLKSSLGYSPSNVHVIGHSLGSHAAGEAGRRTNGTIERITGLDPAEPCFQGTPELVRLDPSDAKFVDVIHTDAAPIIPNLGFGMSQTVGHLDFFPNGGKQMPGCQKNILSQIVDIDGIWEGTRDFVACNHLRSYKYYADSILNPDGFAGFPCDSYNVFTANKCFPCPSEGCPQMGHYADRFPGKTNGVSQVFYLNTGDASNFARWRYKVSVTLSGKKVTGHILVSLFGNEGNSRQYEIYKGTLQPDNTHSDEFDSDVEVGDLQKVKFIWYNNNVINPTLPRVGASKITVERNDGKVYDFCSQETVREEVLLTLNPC
ASSAY_PROTOCOL: Lipase inhibition (pNP laurate substrate)
Type: biochemical
COND: comparison among the anthocyanins / proanthocyanidin fractions

>  <COMPOUND>
Oc1cc(O)c2cc(OC3OCC(O)C(O)C3O)c(-c3ccc(O)c(O)c3)[o+]c2c1 (stereo not shown) [Cyanidin 3‐arabinoside, cyanidin 3‐arabinoside]

>  <inhibition effect on lipase (in words)>
no inhibition effects

$$$$
>  <COMPOUND>
OCC1OC(Oc2cc3c(O)cc(O)cc3[o+]c2-c2ccc(O)c(O)c2)C(O)C(O)C1O (stereo not shown) [Cyanidin 3‐galactoside, cyanidin 3‐galactoside]

>  <inhibition effect on lipase (in words)>
no inhibition effects

$$$$
>  <COMPOUND>
Oc1cc(O)c2cc(OC3OCC(O)C(O)C3O)c(-c3ccc(O)c(O)c3)[o+]c2c1 (stereo not shown) [Cyanidin 3‐xyloside, cyanidin 3‐xyloside]

>  <inhibition effect on lipase (in words)>
no inhibition effects

$$$$
